test.system: HLA-A*68:01
protocol.notes: IEDB peptide-MHC binding, purified MHC/competitive/radioactivity; filed as Kd, often an IC50 or EC50 that approximates it; bounds were set here for any values at or beyond the usual limits of such assays
condition.set: source organism: Vaccinia virus WR
property.name: Kd

1) PSILPSLIK    ≥ 40.9 µM

Tell me the measured Kd of `SSDSENNPEY` , please.
≥ 70.2 µM

Request: `VSLVKKNKK`
≥ 27.4 µM

====

Recorded Kd, one value per entry.
test.system: HLA-B*54:01
protocol.notes: IEDB peptide-MHC binding, purified MHC/competitive/radioactivity; filed as Kd, often an IC50 or EC50 that approximates it; bounds were set here for any values at or beyond the usual limits of such assays
condition.set: source organism: Vaccinia virus WR

1) LLTACTIFYI    ≥ 27.6 µM

Tell me reported Kd for `KPFNNILNLI` , tested with HLA-B*54:01.
≥ 69.9 µM

Can you check `DPGNPNCLEW` next?
≥ 69.9 µM

Now consider `SPTEMVDVSM` .
≥ 42.7 µM

====

test.system: HLA-A*68:01
protocol.notes: IEDB peptide-MHC binding, purified MHC/competitive/radioactivity; filed as Kd, often an IC50 or EC50 that approximates it; bounds were set here for any values at or beyond the usual limits of such assays
condition.set: source organism: Vaccinia virus WR
pKd: −log10 of the molar value.
# pKd per entry

Example sequences with recorded pKd:
1. NIRLTDTEY    ≤ 4.11
2. ATKRYPGVMY    ≤ 4.15
3. TLDDLAIKQY    ≤ 4.20

// moving on: another record for pKd
Recorded pKd of `LIDLAFLIK` , please.
≤ 4.11

====

List of pKd values.
test.system: HLA-A*33:01
protocol.notes: IEDB peptide-MHC binding, purified MHC/competitive/radioactivity; filed as Kd, often an IC50 or EC50 that approximates it; bounds were set here for any values at or beyond the usual limits of such assays
condition.set: source organism: Vaccinia virus WR
In simple prose, pKd is minus the logarithm base ten of a concentration in moles per litre.

1. LSTLNFNNLR    5.82

# lookup: pKd of `MIKNLTQLFK`
6.50

Then what about the sequence `EVVMAYVGIK` ?
5.93

Thanks! And `IILFILFFAY` ?
5.59

Another: `NLDLFMSHVK`
5.54

====

Measured Kd accompanies every entry in the list below.
test.system: HLA-A*02:06
protocol.notes: IEDB peptide-MHC binding, purified MHC/competitive/radioactivity; filed as Kd, often an IC50 or EC50 that approximates it; bounds were set here for any values at or beyond the usual limits of such assays
condition.set: source organism: SARS coronavirus Tor2
Note: unit nM is implicit; provide only the numeric part.

1. VMCGGSLYV    6.81
2. LLFNKVTLA    9.01

Now examine the next entry.
What value of Kd has been reported for the following sequence? `SLCSCICTV`
5.83

====

test.system: HLA-B*45:01
protocol.notes: IEDB peptide-MHC binding, purified MHC/competitive/radioactivity; filed as Kd, often an IC50 or EC50 that approximates it; bounds were set here for any values at or beyond the usual limits of such assays
condition.set: source organism: SARS coronavirus Tor2
property.name: pKd
Field pKd (float): negative decimal logarithm of the concentration in molar.

1. FEKMVSLLSV    6.11

Request the reported pKd associated with `QELYSPLFLI`
7.34

`VEAVMYMGT` , same question.
6.21

And for `FELTSMKYFV` ?
5.11

Now this one: `REGVFVFNGT`
6.65

====

// reported Kd for each item listed
test.system: HLA-B*18:01
protocol.notes: IEDB peptide-MHC binding, purified MHC/competitive/radioactivity; filed as Kd, often an IC50 or EC50 that approximates it; bounds were set here for any values at or beyond the usual limits of such assays
condition.set: source organism: SARS coronavirus Tor2

Reference set, count: 2
1) FELTSMKYFV    ≥ 37.9 µM
2) SEAPNAKEEI    ≥ 27.2 µM

Now examine the next entry.
For the sequence shown here, `REGVFVFNGT` , give the reported Kd.
≥ 70.5 µM

====

test.system: HLA-A*31:01
protocol.notes: IEDB peptide-MHC binding, purified MHC/competitive/radioactivity; filed as Kd, often an IC50 or EC50 that approximates it; bounds were set here for any values at or beyond the usual limits of such assays
condition.set: source organism: SARS coronavirus Tor2
property.name: Kd (µM)
// units = µM; emit number, no label

Guide cases for Kd, answers given:
1. VFHLYLQYIR    0.0563
2. SSNVANYQK    4.04
3. VTGLFKDCSK    5.12

Would you mind telling me what Kd value was observed for `TSFGPLVRK` ?
0.452

====

Listed sequences paired with reported Kd
test.system: HLA-A*23:01
protocol.notes: IEDB peptide-MHC binding, purified MHC/competitive/radioactivity; filed as Kd, often an IC50 or EC50 that approximates it; bounds were set here for any values at or beyond the usual limits of such assays
condition.set: source organism: SARS coronavirus Tor2
Answer with a number only, understood to be in µM.

Below are worked cases with known answers.
1) HYVRITGLY    7.53
2) VYDPLQPEL    12.8
3) NMLRIMASL    10.9

API: the following record is the query input.
Need Kd, item `PYPDPSRIL`
19.8

====

Known Kd of a selection of sequences
test.system: HLA-A*03:01
protocol.notes: IEDB peptide-MHC binding, purified MHC/competitive/radioactivity; filed as Kd, often an IC50 or EC50 that approximates it; bounds were set here for any values at or beyond the usual limits of such assays
condition.set: source organism: Vaccinia virus WR
# number only, unit nM dropped from output

1. RLQMAGVEVR    1480

Requested read-out: Kd. Entry: `EVVMAYVGIK`
413

Okay, and `MIKNLTQLFK` ?
0.828

Same read-out for `ELAELLEMK` ?
3800

Now the sequence `ILSKIPYLR`
605

Please answer likewise for `KFAEESYTYY`
4860

Again, but for `AIDRQVSVK`
144

====

test.system: HLA-A*02:01
protocol.notes: IEDB peptide-MHC binding, purified MHC/competitive/fluorescence; bounds were set here for any values at or beyond the usual limits of such assays
condition.set: source organism: Zaire ebolavirus
pIC50: −log10 of the molar value.
property.name: pIC50

Under HLA-A*02:01: pIC50 value of `TPVYKLDIS` ?
≤ 3.77

====

Let's look at some sequences and their measured Kd.
test.system: HLA-B*44:03
protocol.notes: IEDB peptide-MHC binding, purified MHC/competitive/radioactivity; filed as Kd, often an IC50 or EC50 that approximates it; bounds were set here for any values at or beyond the usual limits of such assays
condition.set: source organism: Mammarenavirus lassaense

Solved cases (2 shown):
1) GDVELLGTT    ≥ 52.1 µM
2) FDAAASGGL    ≥ 78.1 µM

Here is the next item to consider.
What is its Kd for HLA-B*44:03? Entry: `FESYVRPFVA`
≥ 32 µM

====

test.system: HLA-A*31:01
protocol.notes: IEDB peptide-MHC binding, purified MHC/competitive/radioactivity; filed as Kd, often an IC50 or EC50 that approximates it; bounds were set here for any values at or beyond the usual limits of such assays
condition.set: source organism: Vaccinia virus WR
pKd: −log10 of the molar value.
property.name: pKd

Below are worked cases with known answers.
1) SSDSENNPEY    ≤ 4.15
2) QILDNAAKY    ≤ 4.11
3) KFAEESYTYY    ≤ 4.66

Please look at the following sequence next.
Reported pKd, sequence `EFIFSALDEK` : ____
≤ 4.15

====

test.system: HLA-A*11:01
protocol.notes: IEDB peptide-MHC binding, purified MHC/competitive/radioactivity; filed as Kd, often an IC50 or EC50 that approximates it; bounds were set here for any values at or beyond the usual limits of such assays
condition.set: source organism: Vaccinia virus WR
property.name: log10 Kd (log10 of the value in nM)
# log10 transformed; quantity=Kd; unit=nM

Sample `RSNAILHNIY` — what was its log10 Kd?
3.13

Record: `QILMKTANNY`
2.94

Follow-up entry: `MIKNLTQLFK`
-0.12

Please give the result for `NLDLFMSHVK` too.
1.84

And the next one, `ASILSLETVK` ?
1.40

====

Here, each record is paired with measured Kd data.
test.system: HLA-A*69:01
protocol.notes: IEDB peptide-MHC binding, purified MHC/direct/fluorescence; filed as Kd, often an IC50 or EC50 that approximates it; bounds were set here for any values at or beyond the usual limits of such assays
condition.set: source organism: Mycobacterium tuberculosis

For orientation, consider the following solved cases.
1. SPRSRNRSF    ≥ 20 µM
2. YMLDMTFPV    ≤ 0.001 µM

Please give the measured Kd for this sequence: `APAKKAAPA`
≥ 20 µM
